molecular target: human MCH-1 receptor (Homo sapiens, UniProt Q99705); construct: expressed in transfected cells; host or cells: transiently transfected COS-7 cells or stably transfected CHO cells (pcDNA3.1); test: Phosphatidylinositol assay (IP3); assay type: cell-based; settings: phosphatidylinositol turnover stimulated by 10 nM MCH; COS-7 or CHO cells expressing human MCH-1 receptor
Sequence (Q99705 whole entry): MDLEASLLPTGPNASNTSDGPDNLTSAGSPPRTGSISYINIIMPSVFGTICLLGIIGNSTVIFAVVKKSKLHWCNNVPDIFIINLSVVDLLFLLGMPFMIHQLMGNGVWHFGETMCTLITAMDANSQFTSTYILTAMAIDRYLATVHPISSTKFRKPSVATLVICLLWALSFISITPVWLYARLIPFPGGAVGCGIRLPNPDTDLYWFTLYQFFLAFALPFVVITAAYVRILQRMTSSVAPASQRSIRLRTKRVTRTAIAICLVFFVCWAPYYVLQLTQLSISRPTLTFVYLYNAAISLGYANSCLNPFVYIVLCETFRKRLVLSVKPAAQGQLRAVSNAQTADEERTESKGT
recorded_metric: IC50 (nM)

P = COc1cc(NC(=O)Nc2ccc(Oc3ccccc3)cc2)ccc1C(=O)NCCN(C)C
Q = CCCCN(CCCC)CCCNC(=O)c1ccc(N(C)C(=O)Nc2ccc(Oc3ccccc3)cc2)cc1OC
Asked: Compare IC50: is it lower for P or for Q ? Indicate your choice by writing its label.
Given back: Q
